- Test system: BVDV NADL virus
- assay comment: CPE-based antiviral assay, BVDV NADL in MDBK cells (MTS/PMS)
- test parameters: selectivity index, CC50 vs EC50

smiles entry | system under test | S.I.
O=C(Nc1ccn(-c2ccccc2)n1)c1cc(-c2ccccc2F)nc2c(F)cccc12 | BVDV NADL virus | 333
Cc1cccc2sc(NC(=O)c3cc(-c4cccn4C)nc4ccccc34)nc12 | BVDV NADL virus | 500
Cc1ccc2nc(NC(=O)c3cc4ccccc4n3C)sc2c1 | BVDV NADL virus | 1
Cc1c(-c2ccco2)nc2ccccc2c1C(=O)Nc1nc2c(C)cccc2s1 | BVDV NADL virus | 143
Cc1cccc2sc(NC(=O)c3cc(-c4cccs4)nc4ccccc34)nc12 | BVDV NADL virus | 500
Cc1ccc2nc(NC(=O)c3cccc4ccccc34)sc2c1 | BVDV NADL virus | 1
CCOc1ccc2nc(NC(=O)c3cc(-c4ccccc4)nc4ccccc34)sc2c1 | BVDV NADL virus | 30
COc1ccc2nc(NC(=O)c3cc(-c4ccco4)nc4ccc(OC(F)(F)F)cc34)sc2c1 | BVDV NADL virus | 1
Cc1ccc2nc(NC(=O)c3nccn3C)sc2c1 | BVDV NADL virus | 2
O=C(Nc1ccn(-c2ccccc2Cl)n1)c1cc(-c2ccccc2)nc2ccccc12 | BVDV NADL virus | 1000
Cc1cccc2sc(NC(=O)c3cc(-c4ccco4)nc4c(F)cccc34)nc12 | BVDV NADL virus | 111
Cc1cccc2sc(NC(=O)c3cc(-c4ccco4)nc4ccc(C(F)(F)OF)cc34)nc12 | BVDV NADL virus | 40
Cc1ccc2nc(NC(=O)c3cccnc3)sc2c1 | BVDV NADL virus | 1
O=C(Nc1ccn(-c2ccccc2)n1)c1cc(-c2cccs2)nc2ccc(F)cc12 | BVDV NADL virus | 1667
COc1ccc2nc(NC(=O)c3cc(-c4ccco4)nc4ccc(C)cc34)sc2c1 | BVDV NADL virus | 9
O=C(Nc1nc2cc(Cl)ccc2o1)c1cc(-c2ccccc2)nc2ccccc12 | BVDV NADL virus | 1
Cc1cccc2sc(NC(=O)c3cc(-c4ccco4)nc4ccc(CO)cc34)nc12 | BVDV NADL virus | 1
COc1ccc2nc(NC(=O)c3cc(-c4ccco4)nc4ccc(Cl)cc34)sc2c1 | BVDV NADL virus | 4
COc1ccc2nc(NC(=O)c3cc(-c4ccco4)nc4c(C)cc(C)cc34)sc2c1 | BVDV NADL virus | 17
Cc1cccc2sc(NC(=O)c3cc(-c4cc5ccccc5o4)nc4ccccc34)nc12 | BVDV NADL virus | 33
O=C(Nc1ccn(-c2ccccc2)n1)c1cc(-c2ccc(F)cc2)nc2ccc(F)cc12 | BVDV NADL virus | 333
CC(C)(C)c1cc(NC(=O)c2cc(-c3ccccc3)nc3ccccc23)no1 | BVDV NADL virus | 14
Cc1noc(C)c1NC(=O)c1cc(-c2ccccc2)nc2ccccc12 | BVDV NADL virus | 2
O=C(Nc1ccn(-c2ccccc2)n1)c1cc(-c2cccs2)nc2ccccc12 | BVDV NADL virus | 59
O=C(Nc1ccccc1)c1cc(-c2ccccc2)nc2ccccc12 | BVDV NADL virus | 1
O=C(Nc1ccn(-c2ccccc2)n1)c1cc(-c2cccc3ccccc23)nc2ccccc12 | BVDV NADL virus | 1000
Cc1ccc2nc(NC(=O)c3cc(-c4ccccc4F)nc4ccccc34)sc2c1 | BVDV NADL virus | 500
O=C(Nc1ccn(-c2ccccc2)n1)c1cc(-c2ccco2)nc2ccccc12 | BVDV NADL virus | 10
Cc1cccc2sc(NC(=O)c3cc(-c4ccc(F)cc4)nc4ccccc34)nc12 | BVDV NADL virus | 500
O=C(Nc1nc2ccc(F)cc2s1)c1cc(-c2ccccc2)nc2ccccc12 | BVDV NADL virus | 333
O=C(Nc1nc2c(F)cccc2s1)c1cc(-c2ccccc2)nc2ccccc12 | BVDV NADL virus | 80
O=C(Nc1ccn(-c2ccccc2)n1)c1cc(-c2cccs2)nc2ccc(Br)cc12 | BVDV NADL virus | 167
Cc1cccc2sc(NC(=O)c3cc(-c4ccco4)nc4ccc(Cl)cc34)nc12 | BVDV NADL virus | 9
COc1ccc(-c2cc(C(=O)Nc3nc4c(C)cccc4s3)c3ccccc3n2)cc1F | BVDV NADL virus | 40
